Below: a set of entries, each annotated with reported inhibition at 1 µM.
- target of assay: L-type voltage-dependent Ca2+ channel (Homo sapiens, UniProt O60840+Q01668+Q13698+Q13936)
- experiment summary: Inhibition of L-type voltage-dependent Ca2+ channel at 1 uM
Numeric answer only, unit % assumed.

COC(=O)C1=C(C)NC(C)=C(C(=O)OC)C1c1ccccc1F; 95.9
CCOC(=O)C1=C(C)NC(C)=C(C(=O)OCC)C1c1ccc(Cl)c(Cl)c1; 100
CCOC(=O)C1=C(C)NC(C)=C(C(=O)OCC)C1c1ccc(OCC)cc1; 58.7
COC(=O)C1=C(C)N=C(C)/C(=C(/O)OC)C1c1cccc(Cl)c1 (stereo not given); 100
C=CCOC(=O)C1=C(C)NC(C)=C(C(=O)OCC=C)C1c1ccc(Cl)c(Cl)c1; 87.2
CCOC(=O)C1=C(C)NC(C)=C(C(=O)OCC)C1c1cc(Cl)cc(Cl)c1OC; 100

Q: Using the record for COC(=O)C1=C(C)NC(C)=C(C(=O)OC)C1c1ccc(Cl)c(Cl)c1 , state its measured inhibition at 1 µM.
Result: 100

Q: Using the record for COC(=O)C1=C(C)NC(C)=C(C(=O)OC)C1c1ccc(OC)cc1 , state its measured inhibition at 1 µM.
Result: 9.1

Q: Using the record for COC(=O)C1=C(C)N(C)C(C)=C(C(=O)OC)C1c1ccccc1Cl , state its measured inhibition at 1 µM.
Result: 50.6

Q: Using the record for COC(=O)C1=C(C)NC(C)=C(C(=O)OC)C1c1ccc(OC)c(Br)c1 , state its measured inhibition at 1 µM.
Result: 32.4

Value source: ChEMBL document CHEMBL2062363
